Listed below: Avg. MFI 200 values for each entry.
target: HLA B*07 (human); assay: T2B7 HLA stabilisation assay, flow cytometry, peptide at 200 ug/ml
measured quantity: Avg. MFI 200 (MFI)

> print(dat)
                     binder  measured.quantity  measured.value
 1  TPGLRCLNLD [WNVB7 0024]       Avg. MFI 200             850
 2  TPAAPSYTLK [WNVB7 0009]       Avg. MFI 200             954
 3  AVKDELNTLL [WNVB7 0004]       Avg. MFI 200             842
 4  IPAGFEPEML [WNVB7 0008]       Avg. MFI 200            1210
 5  VPCRGQDELV [WNVB7 0010]       Avg. MFI 200             659
 6  PEDIDCWCTK [WNVB7 3399]       Avg. MFI 200             990
 7  AAKKKGASLL [WNVB7 0006]       Avg. MFI 200             708
 8  RPQRHDEKTL [WNVB7 0019]       Avg. MFI 200            1640
 9  NPMILAAGLI [WNVB7 0007]       Avg. MFI 200             945
10  PETPQGLAKI [WNVB7 3403]       Avg. MFI 200             589
11  EPPEGVKYVL [WNVB7 0013]       Avg. MFI 200             682
12  KPTGSASSLV [WNVB7 0015]       Avg. MFI 200            1070
13  RPRWIDARVY [WNVB7 0017]       Avg. MFI 200            1710
14  PFPESNSPIS [WNVB7 3411]       Avg. MFI 200             627
15  RPAADGRTVM [WNVB7 0023]       Avg. MFI 200             979
16  PRTNTILEDN [WNVB7 3415]       Avg. MFI 200             779
